src = ChEMBL document CHEMBL1795343

- assay remarks: Aqueous solubility of the compound
- Assay type: physicochemical
- condition: buffer
Consider the following compounds and their measured solubility readings.
Your answer should be a plain number; it is taken to be in µM.

solubility in this record for "COc1ccccc1C(=O)c1cnc(NC2CCN(C(=O)Cc3ccccc3)CC2)nc1N" : 6

The reported solubility of the compound "COc1ccccc1C(=O)c1cnc(NC2CCN(S(C)(=O)=O)CC2)nc1N" was 50

Sample "COc1ccccc1C(=O)c1cnc(NC2CCN(c3nc4ccccc4[nH]3)CC2)nc1N" ; solubility observed: 13

The reported value for "COc1ccccc1C(=O)c1cnc(NC2CCN(C(=O)Nc3ccccc3)CC2)nc1N" in terms of solubility is 25

// switching to the query compound
Field solubility (entry "COc1ccccc1C(=O)c1cnc(NC2CCN(C(=O)Nc3cccc(F)c3)CC2)nc1N" ) reads 13
